Each entry below carries its reported PBM binding z-score.
Tested on: VDR:RXRa (NR concentration 270 nM, RXRa partner concentration 90 nM)
Assay: PBM binding z-score (relative to random genomic background probes); higher = stronger binding; sequences stand for … in GC…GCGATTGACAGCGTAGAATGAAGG
Answer as a number with no unit attached.

# annotated cases, reported PBM binding z-score shown
| seq | PBM binding z-score |
| --- | --- |
| GCGACTGGGGCATCAGCAGGTGACCATAACTTAA | -0.635 |
| GGAACGAGGGCAACGTTGATAGCATCTGTCGACG | 0.229 |
| AATACAGGGTCATCGTAGGCCAGAGTGCGCACAG | 5.15 |
| CCTAGCAGGCCCATCTGGGTCACTCAAGGCTTGA | -0.0613 |
| GCTTACGGGTCAAAGGTTATAGGATGAATAGAAT | 5.56 |

// switching to the query sequence
**Q:** Quick one: PBM binding z-score of "CGTCAAAGTTCAACTAAGATAACGTAAAGCACGC" ?
**A:** 4.2

###

Tested on: PPARa:RXRa (NR concentration 270 nM, RXRa partner concentration 90 nM)
Experiment: PBM binding z-score (relative to random genomic background probes); higher = stronger binding; sequences stand for … in GC…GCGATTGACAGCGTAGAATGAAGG
quantityName: PBM binding z-score
Lab note: jot down the number only; don't add units.

**Q:** Sample "CCAGACAGGTGAAAGGTAACTGAGTCTGGTACGC" — what was its PBM binding z-score?
**A:** 3.52

**Q:** "TCATATCGGTAAATGCTAGGTGAAAGTCCGATCT" , same question.
**A:** 0.778

**Q:** Record: "CTCGAAAGGTCGGATGAGGTGAGTATACGGATAA"
**A:** 3.17

**Q:** Could you do the same for "CCTCGGAGGACAGAAGGTCAGAGCTGTCCGCTTT" , please?
**A:** 1.84

**Q:** Can you check "TCTGCTAGGTCAGTTGGTGAGCTAACGAGCTGCC" next?
**A:** 0.853

**Q:** Try the sequence "AGAACAAGGGCACGCTGAGTTGATAGCAGAGTAG"
**A:** 1.38

###

Reported PBM binding z-score values for a set of sequences
System: PPARg:RXRa 30nM:10nM, anti-RXR (NR concentration 30 nM, RXRa partner concentration 10 nM)
Assay: PBM binding z-score (relative to random genomic background probes); higher = stronger binding; sequences stand for … in GC…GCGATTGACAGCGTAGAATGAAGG
Give the figure only, with no unit attached.

Some entries whose results are on file:
| seq | resultNumber |
| --- | --- |
| ATACCAAGGTGATTGTGAGGTCGTTGATACTAAC | 0.0726 |
| CCTACTGGGCCAATGGTCATTGATTCCAATGCTC | 3.81 |
| GCGACTGGGGCATCAGCAGGTTACCATCACTTAA | -0.615 |
| TAGCCTAGGTCATTGGGCCGGTATAGTACGCATC | 0.313 |
| CGTTCAAGGTCAATGCTAGGTCAGTGAAAGCATT | 1.88 |

**Q:** Look at this sequence and give its reported PBM binding z-score. "ATCTCTAGGTAAAGTTCAGTGAAAGATCGATAGA"
**A:** 2.33

###

Test system: PXR:RXRa (NR concentration 270 nM, RXRa partner concentration 90 nM)
Experiment: PBM binding z-score (relative to random genomic background probes); higher = stronger binding; sequences stand for … in GC…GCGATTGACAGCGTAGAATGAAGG
quantityName: PBM binding z-score

Reference set (5 entries):
| seq | result |
| --- | --- |
| ATCTCTAGGCAACAAGTTCAGTGAAAGAGAGGAC | 0.875 |
| TCGCGTAGGTTAGTCGGGGCATTCAGCCAACATA | 0.226 |
| AGTCAACGTTCACTAGGTAACGTAAGATTCAGCT | -0.163 |
| ACAGACAGGTGATGCAGGTAACTCAGGCTATCAT | -0.33 |
| CCTACTGGGCCACGAAAGGTCATTGAATCAGTGA | 5.09 |

**Q:** Provide the documented PBM binding z-score with PXR:RXRa (NR concentration 270 nM, RXRa partner concentration 90 nM) as the system for "TAGCCTGGGTCATGCGGGCCAGTATAGTGTCGGC"
**A:** 1.64

**Q:** Continue with "GCTTTTAGTTGAAAGGGCAACCGAATGATTCTCG"
**A:** 0.695

**Q:** Then what about the sequence "TCTTGTAGATCAAAGTTTAAGAAAGCCGAAGCCT" ?
**A:** 0.685

**Q:** Next sequence: "ATCTCTAGGTAACAGTTCAGTGAATCCCGAGGAT"
**A:** 0.487

**Q:** Another: "ATCGAAAGGTCGTTAGGTGAGTATACAGAAAGGC"
**A:** 2.9

**Q:** Now consider "ACTAGCAAGCCAAGTTTGGGTCACTCAAACAAAG" .
**A:** 0.253

###

Test system: LXRb homodimer (NR concentration 270 nM)
Experiment: PBM binding z-score (relative to random genomic background probes); higher = stronger binding; sequences stand for … in GC…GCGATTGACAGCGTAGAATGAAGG
Assign class by PBM binding z-score: not lower than -0.3 means YES; lower than -0.3 means NO.

Please review the following examples before continuing.
| seq | classLabel |
| --- | --- |
| TCATATAGTTAAACAGGTGAAAGTCCGTAAGTTA | YES |
| TCTTGTACATCAAGCAGGTTAAGAAAGCCTGAGT | YES |
| AGTCAAAGTTCATGTAGGTAACGTAAGATATGCT | YES |
| TCTATTAGTTGATTAAGGCAACCGAAACAGCGGA | YES |

**Q:** Record "CCTACTGGGACAAAGGTCATTGATTCCAATGCTC" ; criterion: PBM binding z-score no lower than -0.3. Met?
**A:** YES

**Q:** Cool, now "CGTCCAAGGTCAAGGTTAGTGAAAGAGACTCGAA"
**A:** YES

**Q:** Check "CCTACTGGGCCATCTGGTCATTGATATCAACGTT" too.
**A:** YES

**Q:** Could you do the same for "TGAATGAGCTTATAAGATCAGGGAACGTTGCAAA" , please?
**A:** NO

###

System: LXRb:RXRa (NR concentration 270 nM, RXRa partner concentration 90 nM)
Test: PBM binding z-score (relative to random genomic background probes); higher = stronger binding; sequences stand for … in GC…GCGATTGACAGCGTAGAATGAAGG
Label No if PBM binding z-score falls below 1; label Yes in every other case.

// below: answered sequences
| seq | classLabel |
| --- | --- |
| TCTTGTAGATCAAAGGTTAAGTAAGCCGAAGCCT | Yes |
| CGAACTAGGTCAAGGTCAAAGTCGGTTTGTGCCA | Yes |
| CGTCCAAGGTCATCAGGTCAGTGAAAGCGACGTG | Yes |

**Q:** Could you verify whether the entry "TCTAGTTGGTCAAAGGTCACAGACTCGAAATGCG" shows PBM binding z-score of no less than 1?
**A:** Yes

**Q:** Now consider "TCATATAGATAAATGCTAGGTGAAAGTCCGATCT" and answer again.
**A:** No

**Q:** Continue with "TATACAGGGTCAAAGGCAAGAGTACGAATGTCGA"
**A:** Yes

**Q:** How about "CAAACTAGGTCACCGGAAGGTCAAAATCCGCATG" ?
**A:** Yes

**Q:** For "ACTAGCAGTCCAAGGGTCACTCAAGATTAGTCCG" then?
**A:** Yes

###

Tested on: LXRa homodimer (NR concentration 270 nM)
Experiment: PBM binding z-score (relative to random genomic background probes); higher = stronger binding; sequences stand for … in GC…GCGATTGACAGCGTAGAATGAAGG
Note to self: values exactly at 0.2 are 1. So PBM binding z-score at or above 0.2 is 1, below is -1.

Please review the following examples before continuing.
| seq | classLabel |
| --- | --- |
| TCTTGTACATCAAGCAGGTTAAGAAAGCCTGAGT | -1 |
| TGACTGAGGTTATAAGATCAGGGAACGTTGCAAA | -1 |
| CTGACTGGGGCAAGGTTACCATAACGCACAGCCA | -1 |
| GGAAGGAGGGCAAGTTGATAGCAGAGTTTGATGG | 1 |
| CGTCCAAGGTCATAGGAGGTCAGTGACGACAGAT | 1 |

**Q:** Given "TCTAGTTGCTCACGGAGGTCACACACGACGGGTA" , state whether its PBM binding z-score is at least 0.2.
**A:** 1

**Q:** Entry to check: "TCTGCTAGGTCAACGATGGACAGCTAATCTGCTA"
**A:** -1

**Q:** Same question, "CCCGAAAGGTCGTGCTCAGGTGAGTATACCAAAC" this time
**A:** 1

**Q:** Param item: "CCTGCTAGGTCATGGTCAACTAATCTACAGTATG"
**A:** 1

**Q:** Record: "TCGAGTAGGTTACCAATGGGGCATTGAGCTTTCT"
**A:** -1

**Q:** What do you get for "ATTAGCAGGCCAAGGGTCACTCAAGATTAGTCCG" ?
**A:** 1

**Q:** Then this sequence: "ATCTCTAGGTAAAAGTTCAGTGGATCCCGAGGAT"
**A:** 1
